tested on: MOLM-13; assay: Cytotoxicity against human MOLM13 cells after 24 hrs by plate reader analysis; type: functional, cell-based; settings: MOLM-13, 24 h
measurementType: pEC50
// pEC50 is dimensionless: -log10 of concentration (M)

Exercise: Provide pEC50, system MOLM-13, entry `COc1ccc(C(=O)Nc2cc(-c3ccccc3)[nH]n2)cc1`
Solution: 6.53

* * *

test system: MOLM-13; assay: Cytotoxicity against human MOLM13 cells after 72 hrs by plate reader analysis; assay type: functional, cell-based; details: MOLM-13, 72 h
Overview of recorded EC50 for various compounds

COc1ccc(C(=O)Nc2cc(-c3ccccc3)[nH]n2)cc1 :: 292 nM
Cc1cccc(C(=O)Nc2cc(-c3ccc(F)cc3)n[nH]2)c1 :: 630 nM
Fc1ccc(-c2n[nH]cc2-c2ccncc2)cc1Cl :: 258 nM
Cc1ccc(-n2cnc3cc(Nc4nnc(C)c5ccccc45)ccc32)cc1 :: 332 nM

Here is the next item to consider.
Exercise: State its EC50 for this compound: `Cc1ccc(-c2cc(NC(=O)c3ccc(F)cc3)[nH]n2)cc1`
Solution: 612 nM

The reported measurements were obtained from ChEMBL document CHEMBL2390926.
